- System: BXPC-3
- Experiment summary: Cytotoxicity against human BxPC3 cells after 24 hrs by MTT assay
- Format: functional, cell-based
- Condition context: BXPC-3, 24 h
Examples of compounds with documented IC50 follow.
Property label: IC50

- Compound: "COc1cc2ccc(=O)oc2cc1OCC(=O)c1ccc(Cl)cc1"
  Result: "> 100 µM"
- Compound: "COc1cc2ccc(=O)oc2cc1O"
  Result: "> 100 µM"
- Compound: "COc1cc2ccc(=O)oc2cc1OCC(=O)c1ccc(Br)cc1"
  Result: "> 100 µM"
- Compound: "COc1cc2ccc(=O)oc2cc1OCC(O)CN1CCCCC1 (centres undefined)"
  Result: "35 µM"

----------
- Experiment summary: Cytotoxicity against human SHG44 cells after 24 hrs by MTT assay
- Format: functional, cell-based
- Condition context: SHG-44, 24 h
pIC50: −log10 of the molar value.

- Compound: "COc1cc2ccc(=O)oc2cc1OCC(=O)c1ccc(Cl)cc1"
  pIC50: "< 4.00"
- Compound: "COc1cc2ccc(=O)oc2cc1O"
  pIC50: "< 4.00"
- Compound: "COc1cc2ccc(=O)oc2cc1OCC(O)CN1CCCCC1 (centres undefined)"
  pIC50: 4.37
- Compound: "COc1cc2ccc(=O)oc2cc1OCC(=O)c1ccc(Br)cc1"
  pIC50: "< 4.00"

----------
- System: HUVEC
- Experiment summary: Antiangiogenic activity against HUVEC assessed as inhibition of VEGF-induced branching and network formation at 25 umol/L after 5 hrs by microscopy
- Format: functional, cell-based
- Condition context: Homo sapiens
The source made the active and inactive calls. The rule behind the calls is not given here.
Outcome codes: active, inactive

- Compound: "COc1cc2ccc(=O)oc2cc1OCC(=O)c1ccc(Br)cc1"
  Category: "active"
- Compound: "COc1cc2ccc(=O)oc2cc1O"
  Category: "inactive"
- Compound: "COc1cc2ccc(=O)oc2cc1OCC(=O)c1ccc(Cl)cc1"
  Category: "active"
- Compound: "COc1cc2ccc(=O)oc2cc1OCC(O)CN1CCCCC1 (centres undefined)"
  Category: "active"

----------
- System: HUVEC
- Experiment summary: Antiproliferative activity against HUVEC assessed as growth inhibition rate at 100 uM after 24 hrs by MTT assay
- Format: functional
- Condition context: Homo sapiens, read-out: GI

- Compound: "COc1cc2ccc(=O)oc2cc1OCCN1CCN(C)CC1"
  Scale unit: "%"
  inhibition of growth at 100 µM: 12
- Compound: "COc1cc2ccc(=O)oc2cc1OCC(=O)c1ccccc1"
  Scale unit: "%"
  inhibition of growth at 100 µM: 83.6
- Compound: "COc1cc2ccc(=O)oc2cc1OCC(=O)c1ccc(Br)cc1"
  Scale unit: "%"
  inhibition of growth at 100 µM: 97.5
- Compound: "COc1cc2ccc(=O)oc2cc1OCC(O)CN1CCOCC1 (configuration not stated)"
  Scale unit: "%"
  inhibition of growth at 100 µM: 0.1
- Compound: "COc1cc2ccc(=O)oc2cc1OCCNC(C)C"
  Scale unit: "%"
  inhibition of growth at 100 µM: 0.1
- Compound: "COc1cc2ccc(=O)oc2cc1OCC(O)CNC(C)C (configuration not stated)"
  Scale unit: "%"
  inhibition of growth at 100 µM: 6.3
- Compound: "COc1cc2ccc(=O)oc2cc1OCC(=O)c1ccc(F)cc1"
  Scale unit: "%"
  inhibition of growth at 100 µM: 16.6
- Compound: "CCN(CC)CCOc1cc2oc(=O)ccc2cc1OC"
  Scale unit: "%"
  inhibition of growth at 100 µM: 3.1
- Compound: "COc1cc2ccc(=O)oc2cc1O"
  Scale unit: "%"
  inhibition of growth at 100 µM: 2.1
- Compound: "COc1cc2ccc(=O)oc2cc1OCC(=O)c1ccc(Cl)cc1"
  Scale unit: "%"
  inhibition of growth at 100 µM: 83.8
- Compound: "COc1cc2ccc(=O)oc2cc1OCCBr"
  Scale unit: "%"
  inhibition of growth at 100 µM: 5.6
- Compound: "COc1cc2ccc(=O)oc2cc1OCC(O)CN1CCN(C)CC1 (configuration not stated)"
  Scale unit: "%"
  inhibition of growth at 100 µM: 3.4
